Assay: qHTS assay to identify small molecule agonists of the retinoic acid receptor (RAR) signaling pathway (AID 1159553); also: % is scaled to controls: 0 for no effect and ±100 for the full control effect
Conditions: C3RL4 RARE luciferase reporter, agonist, 6 h; series mostly up to 73.3 µM
Results filed as inconclusive are left out. Calls of active or inactive are those of the source. Calls follow the shape of the dose curve; as a rule, active = well fitted activation curve with a large enough effect in the repeat runs; inconclusive = weak or mixed curves, or effect the other way; inactive = no such curve, though single readings can be large or run the other way.
Your response should consist of one outcome taken from active, inactive

Known results for compounds:
OCC(O)c1ccccc1 (stereo not drawn) | inactive
O=C(C1CCCCC1)N1CC(=O)N2CCCc3ccccc3C2C1 (stereo not drawn) | inactive
CCCOC(C)=O | inactive

Task item: Which outcome did this test record for the compound CC(C(=O)O)c1ccc2c(c1)Cc1cccnc1O2 (stereo not drawn) ?
Reply: inactive

* * *

Test: qHTS assay for small molecule agonists of the antioxidant response element (ARE) signaling pathway (AID 743202)
Conditions: HepG2 ARE-bla reporter, beta-lactamase FRET, 16 h; series mostly up to 73.3 µM
Results filed as inconclusive are left out. Activity calls are given as the source filed them. Calls come from the whole dose curve; as a rule, active = well fitted activation curve with a large enough effect in the signal ratio in the repeat runs (not every such curve was filed as active); inconclusive = weak or mixed curves, or effect the other way; inactive = no such curve, though single readings can be large or run the other way; the % refers to the signal ratio.
One label from this list, please: active, inactive

Previously resolved entries follow.
CCOc1ccc2c(c1)C(C)CC(C)(C)N2 (centres undefined) | inactive
Nc1nc(Cl)nc2c1ncn2[C@H]1C[C@H](O)[C@@H](CO)O1 | inactive
CC(=O)S[C@H](C(=O)N[C@H]1Cc2ccccc2[C@H]2CCC[C@@H](C(=O)O)N2C1=O)C(C)C | inactive
Clc1cc(Cl)c2c(c1)N=C1CCCCCN1C2 | inactive
CCCC1CCCC(=O)O1 (centres undefined) | inactive
OCCOc1cccc(OCCO)c1 | inactive
CC(C)(C)NCC(O)COc1ccc(NC(=O)NC2CCCCC2)cc1 (centres undefined) | inactive
C=C[Si](OCC)(OCC)OCC | inactive
CC1(C)C(=O)NC(=O)N1CO | inactive
CCCCC(CC)COCCC#N (centres undefined) | inactive

Task item: Fill in: this test's call for CC(CCl)OC(C)CCl (centres undefined) is ___
Reply: inactive

Task item: Kindly provide the recorded test outcome for the following molecule: COc1ccc(/C=C/c2cc(OC)cc(=O)o2)cc1
Reply: active

Task item: Test call, this molecule: Cc1c(N=C=O)cccc1N=C=O
Reply: inactive

Task item: Per the records of this test, what outcome belongs to CNc1ccccc1 ?
Reply: inactive

* * *

Experiment: qHTS assay to test for compound auto fluorescence at 535 nm (green) in HEK293 cell free culture (AID 720682); also: % is scaled to controls: 0 for no effect and ±100 for the full control effect
Conditions: cell-free medium, green autofluorescence 485/535 nm, stronger effect = higher value; series mostly up to 91.3 µM
Active and inactive are the calls of the source. Calls follow the shape of the dose curve; as a rule, active = well fitted curve in the direction sought with a large enough effect in the repeat runs; inconclusive = weak or mixed curves; inactive = flat fitted curve, though single readings scatter.
ENDPOINT_NAME: activity change

Completed entries (count: 10):
NC(=O)c1ccccc1C(N)=O | inactive
O=C(OC1C[C@H]2CC[C@@H](C1)[N+]21CCCC1)C(O)(c1ccccc1)c1ccccc1 (stereo not given in full) | inactive
Nc1ccccc1Nc1ccccc1 | inactive
CC(C)CCCCCCCOC(=O)c1ccc(C(=O)OCCCCCCCC(C)C)c(C(=O)OCCCCCCCC(C)C)c1 | inactive
N#CCCCC(C#N)CCC#N (stereo not given) | inactive
CCc1c(C)[nH]c2c1C(=O)C(CN1CCOCC1)CC2 (stereo not given) | 0.141% [at 18.6 µM] (inactive)
CC(=O)Nc1cccc(N)c1 | inactive
CC[C@H](NC(C)C)[C@H](O)c1ccc(O)c2[nH]c(=O)ccc12 | inactive
CC(CCl)OC(C)CCl (stereo not given) | inactive
Oc1ccc(Oc2ccccc2)cc1 | inactive

Hi there! I need activity change for each item below, if you can.
1. CC1(C)CC(O)CC(C)(C)N1[O]
2. CCCCOC(=O)CC#N
3. [O-][n+]1ccc(Cl)cc1
4. O=C(O)CNc1ccccc1
5. CC(=O)S[C@H](C(=O)N[C@H]1Cc2ccccc2[C@H]2CCC[C@@H](C(=O)O)N2C1=O)C(C)C

Reply:
1: inactive; 2: inactive; 3: inactive; 4: inactive; 5: inactive

Hey, quick one: what's activity change for each of these?
1. NC(=O)c1cc[n+](CC2=C(C(=O)[O-])N3C(=O)[C@@H](NC(=O)Cc4cccs4)[C@H]3SC2)cc1
2. CCCCC(CC)COCCC#N (stereo not given)
3. Cc1ccc(S(=O)(=O)NC(=O)NC2CCCC2)cc1
4. O=C(Nc1ccccc1)c1cc([N+](=O)[O-])ccc1Cl
5. CC(C(=O)O)c1ccc(/C=C2\CCCCC2=O)cc1 (stereo not given)

Reply:
["0.0615% [at 18.6 µM] (inactive)", "inactive", "inactive", "inactive", "inactive"]

* * *

Assay: qHTS assay to identify small molecule antagonists of the estrogen receptor alpha (ER-alpha) signaling pathway using the BG1 cell line - cell viability counter screen (AID 743081);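 also: compound given together with 17beta-estradiol as the ER stimulus; % is scaled to controls: 0 for no effect and ±100 for the full control effect; nearly all actives have a fitted effect of over 45% in size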
Conditions: BG1Luc4E2 viability, CellTiter-Fluor, 22 h; series mostly up to 70.3 µM
Results filed as inconclusive are left out. The source made the active and inactive calls. The call rests on the fitted dose curve; in most records, active means well fitted cell-killing curve with a large enough effect in the repeat runs; inconclusive means weak or mixed curves, or effect the other way; inactive means flat fitted curve, though single readings scatter.
ENDPOINT_NAME: activity change, negative = cytotoxicity

Please review the entries below; each comes with its answer.
Cc1c(Cl)cccc1[N+](=O)[O-] | inactive
Cc1ccccc1CCO | inactive
COC(=O)/C=C/C(C)=C\C=C\C(C)=C\C=C\C=C(C)\C=C\C=C(C)\C=C\C(=O)O | inactive
CC(C(=O)O)c1ccc(/C=C2\CCCCC2=O)cc1 (stereo not drawn) | inactive

Batch request: activity change, negative = cytotoxicity for each of the following compounds.
1. O=C1C=CCCC1
2. CCC1=C(C)CN(C(=O)NCCc2ccc(S(=O)(=O)NC(=O)NC3CCC(C)CC3)cc2)C1=O (stereo not drawn)
3. CC(CCl)OC(C)CCl (stereo not drawn)
4. O=C(Nc1ccccc1)c1cc([N+](=O)[O-])ccc1Cl
5. CCC(C)CCCC(C)(C)O (stereo not drawn)
6. FC1(F)C(F)(F)C(F)(F)C2(F)C(F)(C1(F)F)C(F)(F)C(F)(F)C1(F)C(F)(F)C(F)(F)C(F)(F)C(F)(F)C12F (stereo not drawn)

Reply:
["inactive", "inactive", "inactive", "inactive", "inactive", "inactive"]

# per-item lookup of activity change, negative = cytotoxicity; items listed below
1. O=C(OCCOCCOCCOC(=O)c1ccccc1)c1ccccc1
2. COC(=O)c1cc(Cl)ccc1[N+](=O)[O-]
3. O=C(c1ccc(Cl)cc1)c1ccc(Cl)cc1
4. SCCOCCOCCS
5. CCCCCCCCCCCCSC#N
6. O=C(O)c1ccc2c(c1)nc(C(=O)NC1CCN(C3CC3)CC1)n2Cc1cc(-c2ccc(Cl)s2)on1
7. O=C(O)c1ccc(O)c(O)c1

Reply:
1. inactive
2. inactive
3. inactive
4. inactive
5. inactive
6. inactive
7. inactive

* * *

Assay: qHTS assay to test for compound auto fluorescence at 460 nm (blue) in HepG2 cells (AID 720687); also: % is scaled to controls: 0 for no effect and ±100 for the full control effect
Settings: autofluorescence 405/460 nm, 1 h; series mostly up to 91.3 µM
The source made the active and inactive calls. Calls come from the whole dose curve; as a rule, active = well fitted curve in the direction sought with a large enough effect in the repeat runs; inconclusive = weak or mixed curves; inactive = flat fitted curve, though single readings scatter.
ENDPOINT_NAME: fluorescence, % of fluorescent control

Example entries begin here.
CCCC1CCOC(C)S1 (centres undefined) | inactive
O=Cc1ccc(Cl)c([N+](=O)[O-])c1 | inactive
Cc1ccc2ccccc2c1[N+](=O)[O-] | inactive
Clc1ccccc1-c1nc(-c2ccncc2)no1 | inactive

Record fluorescence, % of fluorescent control for all entries; do not skip any.
1. CCCCCCCCCCCCCCCCN
2. CCC(CC)C(=O)O
3. CCCCCCCCCCCC(=O)OCC
4. S=c1[nH][nH]c(=S)s1
5. CCCCCCCCCCCCN1CCOCC1
6. CCn1nc(Cc2ccccc2)cc1C1CCN(C[C@H]2C[C@H](N(C)[C@@H](C(=O)O)C(C)C)C[C@@H]2c2cccc(F)c2)CC1

Reply:
inactive
inactive
inactive
inactive
inactive
inactive

Give fluorescence, % of fluorescent control for each of the items listed below.
1. Cc1ccc(NC(=O)c2ccc(CN3CCN(C)CC3)cc2)cc1Nc1nccc(-c2cccnc2)n1
2. CCCc1ccc(OC)cc1

Reply:
1. inactive
2. inactive

Respectfully, I request fluorescence, % of fluorescent control for each entry included below.
1. CCOc1ccc(NC(C)=O)cc1N
2. Cc1nc2sccn2c(=O)c1CCN1CCC(=C(c2ccc(F)cc2)c2ccc(F)cc2)CC1

Reply:
["inactive", "inactive"]

* * *

Assay: qHTS assay to identify small molecule agonists of the endoplasmic reticulum stress response signaling pathway (AID 1159516); also: % is scaled to controls: 0 for no effect and ±100 for the full control effect
Details: ESRE-bla HeLa, ER stress beta-lactamase reporter, 5 h; series mostly up to 61 µM
Records with an inconclusive call do not appear. Activity calls are given as the source filed them. Calls follow the shape of the dose curve; as a rule, active = well fitted activation curve with a large enough effect in the signal ratio in the repeat runs (not every such curve was filed as active); inconclusive = weak or mixed curves, or effect the other way; inactive = flat fitted curve, though single readings scatter; the % refers to the signal ratio.
ENDPOINT_NAME: activation

Worked examples, 5 molecules total:
CC1=CC(=C(c2ccc(N)cc2)c2ccc(N)cc2)C=CC1=N | -5.36% [at 6.95 µM] (inactive)
CC(COc1ccccc1)NC(C)C(O)c1ccc(O)cc1 (stereo unspecified) | inactive
COc1cc(C)c(Cc2cnc(N)nc2N)cc1OC | inactive
CCCCCCCCOCCCN | inactive
CS(C)=O | inactive

For every item in the list below, what is its measured activation?
1. Nc1ccccc1Nc1ccccc1
2. NC(=O)c1ccccc1
3. O=C(O)c1ccc2cc(O)ccc2c1

Reply:
inactive
inactive
inactive
